Molecular target: DNMT1 DNA (cytosine-5)-methyltransferase 1 (Homo sapiens, UniProt P26358)
Construct: isoTOP-ABPP experiments performed in cell lysates (in vitro); endogenous in cells; host or cells: soluble proteome of human cancer cell lines (MDA-MB-231; Ramos and Jurkat also prepared)
Sequence (P26358 whole entry): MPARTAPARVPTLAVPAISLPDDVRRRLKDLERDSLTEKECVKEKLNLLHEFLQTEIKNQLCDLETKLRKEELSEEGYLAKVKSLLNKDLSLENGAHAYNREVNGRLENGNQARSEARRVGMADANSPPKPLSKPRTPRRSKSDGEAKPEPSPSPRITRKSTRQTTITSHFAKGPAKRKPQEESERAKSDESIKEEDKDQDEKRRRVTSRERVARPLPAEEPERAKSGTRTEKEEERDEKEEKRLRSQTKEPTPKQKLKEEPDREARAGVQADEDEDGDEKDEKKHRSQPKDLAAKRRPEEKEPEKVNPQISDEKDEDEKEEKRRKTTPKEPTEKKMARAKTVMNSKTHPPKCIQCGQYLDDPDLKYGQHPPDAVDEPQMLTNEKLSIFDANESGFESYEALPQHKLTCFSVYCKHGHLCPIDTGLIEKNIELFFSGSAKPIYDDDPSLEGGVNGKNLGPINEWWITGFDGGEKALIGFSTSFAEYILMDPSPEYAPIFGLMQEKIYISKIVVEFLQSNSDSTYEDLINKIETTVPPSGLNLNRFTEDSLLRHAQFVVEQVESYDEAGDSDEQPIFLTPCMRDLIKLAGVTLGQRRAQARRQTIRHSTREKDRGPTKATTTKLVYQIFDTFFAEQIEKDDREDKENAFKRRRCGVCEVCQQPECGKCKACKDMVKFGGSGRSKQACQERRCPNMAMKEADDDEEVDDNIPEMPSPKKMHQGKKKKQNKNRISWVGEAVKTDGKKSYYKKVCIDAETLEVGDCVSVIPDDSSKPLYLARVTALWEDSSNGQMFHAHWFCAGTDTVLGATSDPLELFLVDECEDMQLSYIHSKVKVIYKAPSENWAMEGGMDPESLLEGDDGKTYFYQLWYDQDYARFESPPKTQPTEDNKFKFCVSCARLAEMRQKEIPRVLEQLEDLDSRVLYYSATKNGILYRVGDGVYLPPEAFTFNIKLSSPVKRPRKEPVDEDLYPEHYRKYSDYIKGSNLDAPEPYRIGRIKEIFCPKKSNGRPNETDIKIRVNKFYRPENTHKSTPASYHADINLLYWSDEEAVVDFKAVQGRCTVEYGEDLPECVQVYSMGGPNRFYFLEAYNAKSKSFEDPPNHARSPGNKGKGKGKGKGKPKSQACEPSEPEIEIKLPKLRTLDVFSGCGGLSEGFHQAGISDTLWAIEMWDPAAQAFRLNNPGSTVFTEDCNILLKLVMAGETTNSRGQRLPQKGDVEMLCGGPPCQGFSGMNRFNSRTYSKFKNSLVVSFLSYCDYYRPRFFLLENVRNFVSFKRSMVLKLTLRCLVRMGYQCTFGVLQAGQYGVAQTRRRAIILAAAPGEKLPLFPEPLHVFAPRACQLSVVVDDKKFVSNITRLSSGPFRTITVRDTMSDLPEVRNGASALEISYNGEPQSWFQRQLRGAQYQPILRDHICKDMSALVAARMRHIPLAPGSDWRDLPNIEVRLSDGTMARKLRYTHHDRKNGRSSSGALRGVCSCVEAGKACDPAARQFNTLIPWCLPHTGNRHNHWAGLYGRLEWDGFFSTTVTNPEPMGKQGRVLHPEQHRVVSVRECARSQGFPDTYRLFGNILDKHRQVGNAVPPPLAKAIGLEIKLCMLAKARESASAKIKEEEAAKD
Experiment: competitive isoTOP-ABPP
Format: binding
Conditions: 50 uM, 231 sol, in vitro
Measurement Type: isoTOP-ABPP reactivity ratio at lysine P26358_K45

cpd_smiles=O=C(CCc1cn(-c2ccccc2)nc1-c1ccccc1)Oc1ccc([N+](=O)[O-])cc1[N+](=O)[O-] readout_number=0.9
cpd_smiles=Cn1cc(CC(=O)Oc2ccc([N+](=O)[O-])cc2[N+](=O)[O-])c2ccccc21 readout_number=1.0
cpd_smiles=COc1cc(CCC(=O)Oc2ccc([N+](=O)[O-])cc2[N+](=O)[O-])cc(OC)c1OC readout_number=0.9
cpd_smiles=O=C(Oc1c(F)c(F)c(F)c(F)c1F)c1ccc2ccccc2n1 readout_number=0.9

====

Catalogue of isoTOP-ABPP reactivity ratio at lysine P46734_K93 values
Target: MAP2K3 Dual specificity mitogen-activated protein kinase (Homo sapiens, UniProt P46734)
Construct: isoTOP-ABPP experiments performed in cell lysates (in vitro); endogenous in cells; host or cells: soluble proteome of human cancer cell lines (MDA-MB-231; Ramos and Jurkat also prepared)
Sequence (P46734 1-347): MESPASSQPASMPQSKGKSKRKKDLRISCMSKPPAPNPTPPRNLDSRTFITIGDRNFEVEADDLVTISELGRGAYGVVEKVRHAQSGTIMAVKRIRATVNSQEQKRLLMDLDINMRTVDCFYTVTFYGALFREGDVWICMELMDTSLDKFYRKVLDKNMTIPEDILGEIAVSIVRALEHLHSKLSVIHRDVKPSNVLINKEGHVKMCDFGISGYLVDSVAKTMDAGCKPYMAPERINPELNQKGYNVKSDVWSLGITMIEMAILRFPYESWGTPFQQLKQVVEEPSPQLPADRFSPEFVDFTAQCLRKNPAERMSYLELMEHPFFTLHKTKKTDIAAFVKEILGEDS
Assay: competitive isoTOP-ABPP
Format: binding
Settings: 50 uM, 231 sol, in vitro
Experimental: In vitro covalent fragment treatment for isoTOP-ABPP. All compounds were made up as solutions in DMSO (100×) and were used at a final concentration of 50 μM for activated esters and 100 μM for guanidinylating agents. […] R value calculation and processing. The ratios of light and heavy MS1 peaks for each unique peptide were quantified with a CIMAGE software using default parameters (3 MS1 acquisitions per peak and signal to noise threshold set to 2.5). […]
Measurement Type: isoTOP-ABPP reactivity ratio at lysine P46734_K93

compound=O=C(Oc1ccc([N+](=O)[O-])cc1[N+](=O)[O-])c1cc(C(F)(F)F)cc(C(F)(F)F)c1 system="MAP2K3 Dual specificity mitogen-activated protein kinase (Homo sapiens, UniProt P46734)" readout_number=1.2
compound="O=C(Oc1ccc([N+](=O)[O-])cc1[N+](=O)[O-])C(c1ccccc1)c1ccccc1 [fragment 30, 2,4-Dinitrophenyl 2,2-diphenylacetate]" system="MAP2K3 Dual specificity mitogen-activated protein kinase (Homo sapiens, UniProt P46734)" readout_number=1.4
compound=COc1cc(CCC(=O)Oc2ccc([N+](=O)[O-])cc2[N+](=O)[O-])cc(OC)c1OC system="MAP2K3 Dual specificity mitogen-activated protein kinase (Homo sapiens, UniProt P46734)" readout_number=0.9
compound=O=C(CCc1coc2cc(F)ccc2c1=O)Oc1c(F)c(F)c(F)c(F)c1F system="MAP2K3 Dual specificity mitogen-activated protein kinase (Homo sapiens, UniProt P46734)" readout_number=1.1
compound=O=C(CCc1cn(-c2ccccc2)nc1-c1ccccc1)Oc1ccc([N+](=O)[O-])cc1[N+](=O)[O-] system="MAP2K3 Dual specificity mitogen-activated protein kinase (Homo sapiens, UniProt P46734)" readout_number=0.9
compound=Cn1cc(CC(=O)Oc2ccc([N+](=O)[O-])cc2[N+](=O)[O-])c2ccccc21 system="MAP2K3 Dual specificity mitogen-activated protein kinase (Homo sapiens, UniProt P46734)" readout_number=1.4

====

Readings of isoTOP-ABPP ratio (R) at liganded lysine Q14CX7_K575 for the listed compounds
Target: NAA25 N-alpha-acetyltransferase 25, NatB auxiliary subunit (Homo sapiens, UniProt Q14CX7)
Construct: isoTOP-ABPP experiments performed in cell lysates (in vitro); endogenous in cells; host or cells: soluble proteome of human cancer cell lines (MDA-MB-231; Ramos and Jurkat also prepared)
Sequence (Q14CX7 whole entry): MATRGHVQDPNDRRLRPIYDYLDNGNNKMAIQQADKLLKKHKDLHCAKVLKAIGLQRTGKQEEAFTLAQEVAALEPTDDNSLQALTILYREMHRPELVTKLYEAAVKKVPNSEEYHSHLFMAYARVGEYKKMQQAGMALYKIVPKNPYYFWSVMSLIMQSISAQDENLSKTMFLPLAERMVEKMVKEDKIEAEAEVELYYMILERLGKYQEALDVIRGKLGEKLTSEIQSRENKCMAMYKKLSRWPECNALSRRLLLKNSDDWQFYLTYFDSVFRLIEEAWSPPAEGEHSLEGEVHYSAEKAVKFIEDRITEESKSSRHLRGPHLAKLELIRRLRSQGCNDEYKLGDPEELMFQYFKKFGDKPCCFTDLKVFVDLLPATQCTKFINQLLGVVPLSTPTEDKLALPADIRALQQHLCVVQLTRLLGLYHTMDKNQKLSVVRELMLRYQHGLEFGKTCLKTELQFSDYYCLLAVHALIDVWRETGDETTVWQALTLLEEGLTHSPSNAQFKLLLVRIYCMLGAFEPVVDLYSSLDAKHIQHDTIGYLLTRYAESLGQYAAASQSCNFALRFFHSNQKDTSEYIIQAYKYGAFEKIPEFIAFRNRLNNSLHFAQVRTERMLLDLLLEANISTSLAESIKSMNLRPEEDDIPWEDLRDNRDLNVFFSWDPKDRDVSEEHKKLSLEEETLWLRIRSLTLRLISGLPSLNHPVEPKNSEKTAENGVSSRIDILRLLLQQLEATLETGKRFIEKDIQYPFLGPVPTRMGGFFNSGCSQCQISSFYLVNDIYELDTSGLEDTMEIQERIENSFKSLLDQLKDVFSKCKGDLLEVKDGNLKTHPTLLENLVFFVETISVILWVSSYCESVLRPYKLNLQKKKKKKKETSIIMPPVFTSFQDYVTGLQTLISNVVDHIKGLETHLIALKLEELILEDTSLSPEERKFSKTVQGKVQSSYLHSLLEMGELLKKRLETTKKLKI
Test: competitive isoTOP-ABPP
Type: binding
Settings: 50 uM, in vitro, sol, 231
Measurement Type: isoTOP-ABPP ratio (R) at liganded lysine Q14CX7_K575

compound="O=C(Oc1ccc([N+](=O)[O-])cc1[N+](=O)[O-])c1ccc(-c2ccccc2)cc1 [fragment 37]" readout_number=0.9
compound="O=C(Oc1ccc([N+](=O)[O-])cc1[N+](=O)[O-])c1ccc(Oc2ccccc2)cc1 [fragment 39, 2,4-Dinitrophenyl 4-phenoxybenzoate]" readout_number=1.0
compound="O=C(CCc1coc2cc(F)ccc2c1=O)Oc1ccc([N+](=O)[O-])cc1[N+](=O)[O-] [fragment 36]" readout_number=1.5
compound="O=C(Oc1ccc([N+](=O)[O-])cc1[N+](=O)[O-])c1ccc2ccccc2n1 [fragment 35]" readout_number=0.9
compound="O=C(Oc1ccc([N+](=O)[O-])cc1[N+](=O)[O-])c1ccccc1Nc1cccc(C(F)(F)F)c1 [fragment 40]" readout_number=0.8

====

Target: PFKL 6-phosphofructokinase, liver type (Homo sapiens)
Construct: isoTOP-ABPP experiments performed in cell lysates (in vitro); endogenous in cells; host or cells: soluble proteome of human cancer cell lines (MDA-MB-231; Ramos and Jurkat also prepared)
Sequence (P17858 whole entry): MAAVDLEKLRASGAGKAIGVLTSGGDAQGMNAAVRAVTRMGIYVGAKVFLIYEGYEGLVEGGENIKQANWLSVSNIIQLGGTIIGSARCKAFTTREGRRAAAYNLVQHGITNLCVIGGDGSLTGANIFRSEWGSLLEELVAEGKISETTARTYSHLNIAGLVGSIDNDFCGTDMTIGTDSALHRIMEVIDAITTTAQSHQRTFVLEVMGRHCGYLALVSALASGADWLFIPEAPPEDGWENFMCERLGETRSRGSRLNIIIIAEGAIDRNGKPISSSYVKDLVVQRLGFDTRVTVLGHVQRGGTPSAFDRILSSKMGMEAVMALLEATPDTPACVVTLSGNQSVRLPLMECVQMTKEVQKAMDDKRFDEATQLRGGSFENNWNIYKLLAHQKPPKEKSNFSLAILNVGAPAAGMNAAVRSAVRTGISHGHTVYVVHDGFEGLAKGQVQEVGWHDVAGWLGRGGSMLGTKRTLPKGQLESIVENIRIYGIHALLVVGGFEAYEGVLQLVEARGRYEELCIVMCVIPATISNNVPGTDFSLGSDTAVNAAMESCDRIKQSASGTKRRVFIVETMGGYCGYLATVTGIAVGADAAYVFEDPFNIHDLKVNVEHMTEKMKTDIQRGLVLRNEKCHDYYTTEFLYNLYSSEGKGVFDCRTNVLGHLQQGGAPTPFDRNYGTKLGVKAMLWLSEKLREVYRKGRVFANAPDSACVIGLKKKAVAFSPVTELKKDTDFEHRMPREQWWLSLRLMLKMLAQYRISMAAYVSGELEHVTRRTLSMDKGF
Experiment: competitive isoTOP-ABPP
Type: binding
Details: P17858_K677; 50 uM, 231 sol, in vitro
Description: In vitro covalent fragment treatment for isoTOP-ABPP. All compounds were made up as solutions in DMSO (100×) and were used at a final concentration of 50 μM for activated esters and 100 μM for guanidinylating agents. […] R value calculation and processing. The ratios of light and heavy MS1 peaks for each unique peptide were quantified with a CIMAGE software using default parameters (3 MS1 acquisitions per peak and signal to noise threshold set to 2.5). […]
Label 0 if R value (DMSO/fragment) for probe 1 labeling falls below 3; label 1 in every other case.

compound=Cn1cc(CC(=O)Oc2c(F)c(F)c(F)c(F)c2F)c2ccccc21 cat=0
compound=O=C(CCc1cn(-c2ccccc2)nc1-c1ccccc1)Oc1c(F)c(F)c(F)c(F)c1F cat=0
compound=O=C(Oc1c(F)c(F)c(F)c(F)c1F)c1cc(C(F)(F)F)cc(C(F)(F)F)c1 cat=0
compound=COc1cc(CCC(=O)Oc2c(F)c(F)c(F)c(F)c2F)cc(OC)c1OC cat=0
compound="O=C(Oc1c(F)c(F)c(F)c(F)c1F)C(c1ccccc1)c1ccccc1 [fragment 20, Pentafluorophenyl 2,2-diphenylacetate]" cat=1

====

In this section we review reported R value (DMSO/fragment) for probe 1 labeling values for a set of compounds.
Biological target: LRRC20 Leucine-rich repeat-containing protein 20 (Homo sapiens)
Construct: isoTOP-ABPP experiments performed in cell lysates (in vitro); endogenous in cells; host or cells: soluble proteome of human cancer cell lines (MDA-MB-231; Ramos and Jurkat also prepared)
Sequence (Q8TCA0 1-184): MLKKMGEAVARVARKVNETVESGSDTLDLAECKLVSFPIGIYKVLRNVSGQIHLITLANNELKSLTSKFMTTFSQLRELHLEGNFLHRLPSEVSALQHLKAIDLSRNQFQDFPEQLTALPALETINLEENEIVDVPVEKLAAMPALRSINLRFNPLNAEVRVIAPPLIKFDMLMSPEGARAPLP
Experiment: competitive isoTOP-ABPP
Format: binding
Settings: Q8TCA0_K43; 50 uM, 231 sol, in vitro
Measurement Type: R value (DMSO/fragment) for probe 1 labeling

compound="O=C(Oc1c(F)c(F)c(F)c(F)c1F)c1cc(C(F)(F)F)cc(C(F)(F)F)c1 [fragment 21]" readout_number=1.0
compound="O=C(CCc1cn(-c2ccccc2)nc1-c1ccccc1)Oc1c(F)c(F)c(F)c(F)c1F [fragment 19]" readout_number=1.1
compound="Cn1cc(CC(=O)Oc2c(F)c(F)c(F)c(F)c2F)c2ccccc21 [fragment 22]" readout_number=0.9
compound="O=C(Oc1c(F)c(F)c(F)c(F)c1F)C(c1ccccc1)c1ccccc1 [fragment 20, Pentafluorophenyl 2,2-diphenylacetate]" readout_number=0.7

====

Target: PSME3 Proteasome activator complex subunit 3 (Homo sapiens, UniProt P61289)
Construct: isoTOP-ABPP experiments performed in cell lysates (in vitro); endogenous in cells; host or cells: soluble proteome of human cancer cell lines (MDA-MB-231, Ramos, Jurkat)
Sequence (P61289 whole entry, one chain of several): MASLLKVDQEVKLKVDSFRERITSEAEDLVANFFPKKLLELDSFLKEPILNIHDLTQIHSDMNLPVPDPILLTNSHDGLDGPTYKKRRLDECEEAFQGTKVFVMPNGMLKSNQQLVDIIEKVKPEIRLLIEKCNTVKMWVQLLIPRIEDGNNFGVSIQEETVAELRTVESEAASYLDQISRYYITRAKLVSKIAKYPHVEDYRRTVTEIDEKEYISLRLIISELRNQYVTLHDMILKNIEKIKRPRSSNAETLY
Assay: competitive isoTOP-ABPP
Type: binding
Parameters: key: R = MS1 peak area ratio, DMSO (heavy) / compound-treated (light); capped at 20
Conditions: 50 uM, 231 sol, in vitro
Measurement Type: isoTOP-ABPP reactivity ratio at lysine P61289_K12

cpd_smiles=CCn1cc(C(=O)Oc2c(F)c(F)c(F)c(F)c2F)c(=O)c2ccc(C)nc21 readout_number=1.0
cpd_smiles=O=C(Oc1ccc([N+](=O)[O-])cc1[N+](=O)[O-])c1cc(C(F)(F)F)cc(C(F)(F)F)c1 readout_number=1.1
cpd_smiles=O=C(Oc1c(F)c(F)c(F)c(F)c1F)c1ccc2ccccc2n1 readout_number=0.9
cpd_smiles=Cn1cc(CC(=O)Oc2ccc([N+](=O)[O-])cc2[N+](=O)[O-])c2ccccc21 readout_number=4.7
